Biological target: T1, monkey NPR1 extracellular domain expressed with a C-terminal myc-myc-hexahistidine (mfNPR1-MMH) (monkey, UniProt P16066 33-473 (human entry))
T1 construct: also called monomeric monkey NPR1
T1 chain: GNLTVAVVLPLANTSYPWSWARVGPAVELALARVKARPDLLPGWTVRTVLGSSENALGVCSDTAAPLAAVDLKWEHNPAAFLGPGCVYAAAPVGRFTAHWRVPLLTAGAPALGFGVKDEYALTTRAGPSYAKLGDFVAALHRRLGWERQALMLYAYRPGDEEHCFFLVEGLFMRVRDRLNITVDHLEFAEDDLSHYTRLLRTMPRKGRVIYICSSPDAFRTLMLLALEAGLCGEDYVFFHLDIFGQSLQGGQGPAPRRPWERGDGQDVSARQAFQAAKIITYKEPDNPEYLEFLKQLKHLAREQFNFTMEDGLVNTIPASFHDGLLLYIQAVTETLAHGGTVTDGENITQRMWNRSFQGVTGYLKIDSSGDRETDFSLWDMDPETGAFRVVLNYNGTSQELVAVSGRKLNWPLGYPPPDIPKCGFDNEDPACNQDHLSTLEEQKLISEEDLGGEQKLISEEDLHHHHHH
Assay: SPR, mAb captured, 37 C
ENDPOINT NAME: koff (s⁻¹)
The answer is to be given in s⁻¹; state only the numeric part.

Here is how some binders turned out for koff.
mAb25479 (antibody, V domains shown) VH: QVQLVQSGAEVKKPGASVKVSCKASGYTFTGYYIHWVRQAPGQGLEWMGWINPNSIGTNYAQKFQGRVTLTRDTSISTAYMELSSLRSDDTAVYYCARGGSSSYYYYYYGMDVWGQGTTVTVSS VL: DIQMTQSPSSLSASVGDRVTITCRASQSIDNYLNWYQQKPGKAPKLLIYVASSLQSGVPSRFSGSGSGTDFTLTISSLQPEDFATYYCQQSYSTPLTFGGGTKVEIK    0.0142
mAb25491 (antibody, V domains shown) VH: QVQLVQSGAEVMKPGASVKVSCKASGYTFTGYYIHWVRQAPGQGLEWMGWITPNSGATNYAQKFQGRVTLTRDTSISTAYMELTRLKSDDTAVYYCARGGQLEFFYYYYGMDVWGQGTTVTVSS VL: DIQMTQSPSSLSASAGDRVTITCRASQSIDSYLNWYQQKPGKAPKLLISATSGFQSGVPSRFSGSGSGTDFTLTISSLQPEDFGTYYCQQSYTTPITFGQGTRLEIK    0.00457
mAb22035 (antibody, V domains shown) VH: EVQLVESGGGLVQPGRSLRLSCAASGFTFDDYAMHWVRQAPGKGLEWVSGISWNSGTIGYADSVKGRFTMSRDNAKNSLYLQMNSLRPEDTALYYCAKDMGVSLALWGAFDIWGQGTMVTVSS VL: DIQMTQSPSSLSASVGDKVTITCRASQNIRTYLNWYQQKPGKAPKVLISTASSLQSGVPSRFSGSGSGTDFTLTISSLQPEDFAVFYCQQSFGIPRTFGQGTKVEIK    0.000374

Turning now to a further binder:
The binder listed as mAb22033 (antibody, V domains shown) VH: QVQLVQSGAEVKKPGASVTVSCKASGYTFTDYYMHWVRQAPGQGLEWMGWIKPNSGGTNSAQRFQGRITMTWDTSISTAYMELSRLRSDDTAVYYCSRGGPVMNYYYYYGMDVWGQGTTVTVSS VL: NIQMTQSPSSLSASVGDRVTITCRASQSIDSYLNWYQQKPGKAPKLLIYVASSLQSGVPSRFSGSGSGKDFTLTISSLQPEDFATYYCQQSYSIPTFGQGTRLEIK shows koff equal to 0.000697
